Data provenance: the supplement of paper PMC11451515

Tested on: P12-Ichikawa
Experiment: cell viability relative to DMSO control; higher = less cytotoxic
Conditions: RPMI 5 mM glucose + 10% FBS; 48 h; 0.0211 µM
assay-metric: cell viability (%)
Give the quantity in %, number only.

{"columns": ["compound", "cell viability [%]"],
 "data": [
  ["COC1=CC=C(C=C1)C2CC(=N/N2C3=CC=C(C=C3)[S+](N)([O-])=O)\\C4=CC=CC=C4 (centres undefined)", 94.4],
  ["C[C@@H]1C[C@H]2[C@@H]3CC\\C4=C\\C(=O)\\C=C/[C@]4(C)[C@@]3(Cl)[C@@H](O)C[C@]2(C)[C@@]1(OC(=O)C5=CC=CO5)C(=O)CCl", 54.6],
  ["O=C(CCc1ccc(O)cc1)c1c(O)cc(O)cc1O[C@@H]1O[C@H](CO)[C@@H](O)[C@H](O)[C@H]1O", 86.5]
]}

// next item, cell viability requested
Field cell viability (system: P12-Ichikawa) for entry Cc1cn(CCN2CCN(c3ccccc3-c3cc(C#N)cc(C(=O)NCCCN4CCCC4)c3)CC2)c2ccccc12 = 115
